# System: NCI-H322M lung
# Assay procedure: NCI-60 one-dose screen, 48 h (100 = growth as untreated, 0 = no growth, -100 = all killed)
# Test parameters: 10 µM unless noted
This is part of a sample that, as a whole, favours compounds with a hit. Of some 83,000 tested, about 20% had one in any assay.
One threshold, 40%, splits the recorded growth values: lower ones are YES, equal or higher ones are NO.

[[record]]
compound = "O=C(C1=Cc2cc3ccccc3n2Cc2cnnn21)c1ccc(F)cc1"
group = "NO"

[[record]]
compound = "CS(=O)(=O)Nc1cc(-c2ccc3ncnc(Nc4ccc(OCc5ccccn5)c(Cl)c4)c3c2)cnc1Cl"
group = "YES"

[[record]]
compound = "O=C(/C=C/C12c3ccccc3C(c3ccccc31)C1C(=O)NC(=O)C12)c1ccc(Cl)cc1Cl (stereo not given)"
group = "NO"

[[record]]
compound = "Cc1ccc(-c2nc(SCC(=O)N3CCN(c4cc5c(cc4F)c(=O)c(C(=O)O)cn5C4CC4)CC3)nc(Cl)c2C#N)cc1"
group = "NO"

[[record]]
compound = "NS(=O)(=O)c1ccc(C(=O)NN2C(=O)c3ccccc3C2=O)cc1"
group = "NO"


---

# Tested on: HCC-2998 colon
# Assay procedure: NCI-60 one-dose screen, 48 h
# Test parameters: 10 µM unless noted
About 83,000 compounds went through this panel and 20% of them were active in at least one assay; those are over-represented in the sample as a whole. Activity calls are given as the source filed them. The calls were made as follows: active = growth percent below 10; inactive = the rest.
Outcome codes: true for active, false for inactive

[[record]]
compound = "Cc1cc(NCCCNc2ccnc3cc(Cl)ccc23)nc(Nc2ccc(C(=O)N3CCCCC3)cc2)n1"
group = "true"

[[record]]
compound = "CCOC(=O)c1nnn(-c2no[n+]([O-])c2-c2ccc(OC)cc2)c1COc1cccc2cccnc12"
group = "false"

[[record]]
compound = "CNC(=O)NCC1OC(n2cnc3c(NC(=O)Nc4ccccc4)ncnc32)C2OC(=O)CC12 (centres undefined)"
group = "false"

[[record]]
compound = "CCC(C)(C)c1ccc(Nc2ccc(Nc3ccc(C(C)(C)CC)cc3)cc2)cc1"
group = "false"

[[record]]
compound = "Cn1c(=O)[nH]c(=O)c2nc3c(nc21)-c1ccccc1C3=O"
group = "false"

[[record]]
compound = "CSc1ccc2c3c(n(C[C@H](O)CO)c(=O)c2c1)-c1ccccc1C3=O"
group = "false"

[[record]]
compound = "Clc1ccc(-c2nc(C(Cl)Cl)nc3cc(-c4ccccc4)nn23)cc1"
group = "true"

[[record]]
compound = "Cc1ccc(C)c2c1sc1nc(N3CCOCC3)c(C#N)c(=O)n12"
group = "false"

[[record]]
compound = "CC1(C)CC[C@]2(CO)CC[C@]3(C)[C@](O)([C@H](O)C[C@@H]4[C@@]5(C)CCCNC(C)(C)[C@@H]5CC[C@]43C)[C@@H]2C1"
group = "false"


---

# Test system: OVCAR-5 ovarian
# Assay procedure: NCI-60 one-dose screen, 48 h (100 = growth as untreated, 0 = no growth, -100 = all killed)
# Test parameters: 10 µM unless noted
Compounds without any hit were thinned out: in the full panel of roughly 83,000, 20% have a hit.
Rule: condition met for growth not less than 70%, condition not met for anything less.

[[record]]
chemical_string = "CN1c2ccccc2S(=O)(=O)n2c(SCC(=O)Nc3nc4ccc(F)cc4s3)nnc21"
group = "condition met"

[[record]]
chemical_string = "CNC(=O)c1cc(Oc2ccc3c(c2)sc2nc(-c4cc(C(F)(F)F)cc(C(F)(F)F)c4)cn23)ccn1"
group = "condition met"

[[record]]
chemical_string = "O=C(C1=Cc2cc3ccccc3n2Cc2cnnn21)c1ccc(F)cc1"
group = "condition met"

[[record]]
chemical_string = "COc1cc2c3c(c4c5ccccc5[nH]c4c2c(OC)c1OC)C(=O)N(CCN1CCCCC1)C3=O"
group = "condition not met"

[[record]]
chemical_string = "N#Cc1c(-c2ccc(Br)cc2)nc2c(N=Nc3ccc(S(N)(=O)=O)cc3)c(N)nn2c1N"
group = "condition met"

